Test system: SF-295 CNS
Assay: NCI tumour cell line growth inhibition, 48 h
TGI values for the molecules below.
measured_parameter: TGI

                              smiles_string  observed_measurement
0  COc1ccc(/C=C2/C(=O)N(C(=O)c3ccc(Cl)cc3)N=C2C)cc1OC              > 100 µM
1  CC[C@@]1(O)C(=O)NCc2c1cc1n(c2=O)Cc2cc3cc4c(cc3nc2-1)OCO4               25.7 µM
2  Cc1[nH]c2ncn(/N=C/c3ccccc3)c(=N)c2c1Cc1ccccc1              > 100 µM
3  CC1=NC(=Cc2ccc(Cl)cc2)C(=O)N1n1c(-c2ccccc2)nc2ccccc2c1=O              > 100 µM
4      CN(CCO)CC(=O)CC(O)(C(F)(F)F)C(F)(F)F              > 100 µM

====

Tested on: HCT-116 colon
Test: NCI tumour cell line growth inhibition, 48 h
measured_parameter: TGI (µM)

In [3]: df
Out[3]:
                                   compound  inequality_operator  observed_measurement
0  CNC(=O)c1cc(Oc2ccc3nc(NC(=O)Nc4ccc(Cl)c(Cl)c4)sc3c2)ccn1                    =                  4.35
1  NN/C(=N\S(=O)(=O)c1cc(Cl)c(Oc2ccc([N+](=O)[O-])cc2Cl)c(Cl)c1)Nc1ccc(Cl)cc1                    =                  29.1
2  CCCCCCCCCC(=O)OCC1(CO)C/C(=C/CC(C(C)C)C(C)C)C(=O)O1 (configuration not stated)                    >                   100
3  O=C(Cc1ccccc1)N/N=C(/CCN1CCCC1)CC(c1ccccc1)c1c(O)c2ccccc2oc1=O (configuration not stated)                    >                   100
4                       C1=CCN(c2ccccc2)CC1                    >                   100
5  CCOC(=O)c1cc2c(cc1Cl)SC(N(c1ccc(F)cc1)S(=O)(=O)c1ccc(OC)cc1)=NS2(=O)=O                    =                    32
6                    S=C(Nc1ccccc1)c1ccccn1                    >                   100

====

Test system: PC-3 prostate
Test: NCI tumour cell line growth inhibition, 48 h
GI50 values for the molecules below.
measured_parameter: GI50

>>> df
                                   molecule  measured_parameter  observed_measurement
0  CCCCCCn1c(-c2ccc(C(=O)O/N=C(\N)c3ccc(OC)cc3)cc2)nc(-c2ccccc2)c1-c1ccccc1                GI50               1.67 µM
1  Clc1nc(Cl)c2ncn(C/C=C\Cn3cnc4c(Cl)nc(Cl)nc43)c2n1                GI50               2.05 µM
2  N#Cc1c(NC(=O)c2cccs2)[n+]([O-])c2ccccc2[n+]1[O-]                GI50               64.9 µM
3  O=[N+]([O-])c1cccc(-c2nc3sccn3c2-c2ccnc(NCCCNS(=O)(=O)c3ccc(F)cc3)n2)c1                GI50               1.14 µM
4  COc1ccc(-c2ccc(/C=N/n3cn[nH]c3=S)o2)c([N+](=O)[O-])c1                GI50               35.7 µM
5  COc1cc(C)cc2c1OC(c1ccccc1)CC2=O (stereo unspecified)                GI50              > 100 µM

====

Tested on: OVCAR-3 ovarian
Assay: NCI tumour cell line growth inhibition, 48 h; in the data active = GI50 below about 0.43 µM; inactive = the rest
Classes used: 1.0 for active, 0.0 for inactive

                                    compound  group_label
 0  N#C/C(=C\c1cn(-c2ccccc2)c2ccccc12)C(=O)O          0.0
 1  C[C@]12CC[C@H]3[C@@H](CC=C4C[C@@H](O)CC[C@@]43C)[C@@H]1C/C(=C\c1cccc(OCCN3CCOCC3)c1)[C@@H]2O          0.0
 2  COc1cc2c(cc1OCCCCCOc1cc(-c3ccc(F)cc3)nc(C)n1)N=C[C@@H]1CCCN1C2=O          0.0
 3  CNC(=O)c1cc(Oc2ccc3nc(NC(=O)Nc4ccc(Cl)c(Cl)c4)sc3c2)ccn1          0.0
 4  N#Cc1nc(-c2cccc(Br)c2)cc(-c2ccc(Nc3nc(N4CCCCC4)nc(N4CCCCC4)n3)cc2)c1N          0.0
 5   C#Cc1cccc(NC(=O)Nc2ccc(NC(=O)CCl)cc2)c1          0.0
 6                    S=C(Nc1ccccc1)c1ccccn1          0.0
 7  O=C1N=C2c3c(sc4c3CCCC4)N=CN2C1N=Nc1ccc(Cl)cc1 (configuration not stated)          0.0
 8  CCCCCC(=O)N1c2ccccc2NC2=C(C(=O)CC(c3ccc(OC)c(OC)c3)C2)C1c1ccc(C(F)(F)F)cc1 (configuration not stated)          0.0
 9  COC(=O)c1c2c(c(C)[n+]([O-])c1C)C(=O)C=C(NCc1ccc(Cl)cc1)C2=O          1.0
10  COC(=O)C1=CN(CC2=CC(=O)C(C)=CC2=O)C=C(C(=O)OC)C1c1cccc(OC)c1OC          0.0
11  Clc1nc(Cl)c2ncn(C/C=C\Cn3cnc4c(Cl)nc(Cl)nc43)c2n1          0.0
12  CN(C)c1cccc2[nH]c(-c3[nH]ncc3Nc3ccnc(N)n3)nc12          1.0
13  Cn1c2ccccc2c2c(=O)n(CCCC(=O)NCC(=O)OC(=NC3CCCCC3)NC3CCCCC3)c3c(-c4ccccc4)nnn3c21          0.0
14  CCN(CC)c1ccc(/C=N/NC(=O)c2ccc(Nc3ccnc(C(F)(F)F)c3)cc2)c(O)c1          1.0
15  FC(F)(F)c1ccc2c(c1)N(CCCN1CCN(C3CC3)CC1)c1ccccc1S2          0.0
16  O=c1cc/c(=N\Nc2ccccc2)c(=O)/c1=N/Nc1ccccc1          0.0

====

TGI values for the compounds below.
System: SNB-19 CNS
Experiment: NCI tumour cell line growth inhibition, 48 h
measured_parameter: TGI

compound	measured_target	observed_measurement
O=C(CNC(=O)OCc1ccccc1)NCCCCC(NC(=O)OCc1ccccc1)C(=O)O (stereo unspecified)	SNB-19 CNS	> 100 µM
COc1cc2c(/C=C3/C(=O)Nc4ccccc43)c(Cl)n(Cc3ccccc3)c2cc1C	SNB-19 CNS	> 100 µM
COc1ccc2c(c1)[nH]c(=O)c1c3cccnc3cn21	SNB-19 CNS	> 100 µM
CC(=O)OC1[C@H]2c3cc4c(cc3CN3CCC(C[C@@H]1OC(C)=O)C23)OCO4 (stereo partly specified)	SNB-19 CNS	> 75 µM
Cc1ccccc1C(C#N)/C(=N/NC(=O)c1cc2ccccc2cc1O)C(=O)Nc1cccc(Cl)c1 (stereo unspecified)	SNB-19 CNS	> 100 µM
COC(=O)c1c2c(c(C)[n+]([O-])c1C)C(=O)C=C(NCc1ccc(Cl)cc1)C2=O	SNB-19 CNS	2.39 µM
O=c1c2cc(I)ccc2nc(-c2cccs2)n1Nc1ccccc1	SNB-19 CNS	76.6 µM
COc1ccc(NC=O)c(C(O)CCNC(C)=O)c1 (stereo unspecified)	SNB-19 CNS	> 100 µM
O=[N+]([O-])c1cccc(-c2nc3sccn3c2-c2ccnc(NCCCNS(=O)(=O)c3ccc(F)cc3)n2)c1	SNB-19 CNS	> 100 µM
NN/C(=N\S(=O)(=O)c1cc(Cl)c(Oc2ccc([N+](=O)[O-])cc2Cl)c(Cl)c1)Nc1ccc(Cl)cc1	SNB-19 CNS	62.4 µM
Cc1ccc2c(ccc3c[n+]4ccccc4c(C)c32)c1	SNB-19 CNS	12.8 µM
Oc1ccccc1C=Nc1ccc(Oc2ccc(Cl)cc2)c(Cl)c1	SNB-19 CNS	49.6 µM
CC1=NC(=Cc2ccc(Cl)cc2)C(=O)N1n1c(-c2ccccc2)nc2ccccc2c1=O	SNB-19 CNS	> 100 µM
O=C(O)C(/C=C/c1ccco1)=N\Nc1nc(-c2ccc(Cl)cc2)cs1	SNB-19 CNS	> 50 µM
Clc1ccc(C2=Nc3ccccc3SC(c3ccc(Cl)c(Cl)c3)C2)c(Cl)c1 (stereo unspecified)	SNB-19 CNS	40 µM
Cc1ccc(NC(=O)c2ccnc(C(F)(F)F)c2)cc1-c1cc(OCCO)nc(N2CCOCC2)c1	SNB-19 CNS	19.2 µM
COc1ccc(/C=C/C(=O)NCC(NC(=O)/C=C/c2ccc(OC)c(OC)c2)C(=O)O)cc1OC (stereo unspecified)	SNB-19 CNS	> 100 µM
Cn1c(=O)nc2n(CCO)c(-c3ccccc3)c(-c3ccccc3)nc-2c1=O	SNB-19 CNS	> 100 µM
C[C@]12CC[C@H]3[C@@H](CCC4=CC(=O)CC[C@@H]43)[C@@H]1CC[C@@H]2OC1(O)C(=O)c2ccccc2C1=O	SNB-19 CNS	> 100 µM
CSC(=S)N(C)c1nc(=[N+](C)C)ss1	SNB-19 CNS	> 100 µM
Cc1sc2ncnc(Sc3nc4ccccc4[nH]3)c2c1C	SNB-19 CNS	> 100 µM
O=C(Cc1ccccc1)N/N=C(/CCN1CCCC1)CC(c1ccccc1)c1c(O)c2ccccc2oc1=O (stereo unspecified)	SNB-19 CNS	> 100 µM
CCCCCCCCCC(=O)OCC1(CO)C/C(=C/CC(C(C)C)C(C)C)C(=O)O1 (stereo unspecified)	SNB-19 CNS	> 100 µM
CC(=O)/C=C1/c2ccccc2N(C(C)=O)C1O (stereo unspecified)	SNB-19 CNS	> 100 µM
C/C(=N\NC(=S)N(C)C)c1ncc[nH]1	SNB-19 CNS	> 100 µM
CC(C#N)Nc1ccc(Oc2ccc(C(C)(C)c3ccc(Oc4ccc(NC(C)C#N)cc4)cc3)cc2)cc1 (stereo unspecified)	SNB-19 CNS	> 100 µM
COC(=O)n1c(=O)nc2c3c(ncn21)Oc1c(c(-c2ccccc2)nn1-c1ccccc1)C3c1ccc(Cl)cc1 (stereo unspecified)	SNB-19 CNS	3.13 µM
COc1ccc(NC2=C(Sc3nc(C)cc(C)n3)C(=O)N(Cc3ccccc3)C2=O)cc1Cl	SNB-19 CNS	> 160 µM
N#Cc1cnn2c1n[n+]([O-])c1ccc(Cl)cc12	SNB-19 CNS	10.1 µM
O=c1nc2n(CCO)c(-c3ccccc3)c(-c3ccccc3)nc-2c(=O)[nH]1	SNB-19 CNS	> 100 µM
CCc1cc(Cc2cc(CC)c(NC(=O)C3=CC(=O)CC(c4ccc(OC)cc4)O3)c(CC)c2Cl)c(Cl)c(CC)c1NC(=O)C1=CC(=O)CC(c2ccc(OC)cc2)O1 (stereo unspecified)	SNB-19 CNS	42.7 µM
CC1C(=O)N=C2C(=CN(Cc3ccccc3)c3ccccc32)C(=O)N1C (stereo unspecified)	SNB-19 CNS	> 100 µM
COc1ccc2c(c1)c(Cc1c(C)n(C)c3ccc(OC)cc13)c(C)n2C	SNB-19 CNS	> 100 µM
COc1ccccc1NC(=O)C(C#N)=C(SC)SC	SNB-19 CNS	> 100 µM
CC1CN=C(NCc2ccccc2)S1 (stereo unspecified)	SNB-19 CNS	> 100 µM
CCOc1ccc(C2c3[nH]c4ccccc4c3CCN2C(=O)c2cccs2)cc1 (stereo unspecified)	SNB-19 CNS	> 100 µM
CNC(=O)c1cc(Oc2ccc3nc(NC(=O)Nc4ccc(Cl)c(Cl)c4)sc3c2)ccn1	SNB-19 CNS	3.98 µM
CC(=O)Nc1ccc(-c2nnc(SCC(=O)Nc3ccccc3Cl)o2)cc1	SNB-19 CNS	> 100 µM
CC[C@@]1(O)C(=O)OCc2c1c(Cl)c1n(c2=O)Cc2cc3ccccc3nc2-1	SNB-19 CNS	56.7 µM
Cc1cc2c(cn1)C(=O)OCC2	SNB-19 CNS	> 100 µM
CCN(CC)CCCCC1CCN(CC(=O)N2c3ccccc3NC(=O)c3ccccc32)CC1	SNB-19 CNS	> 100 µM
